# Tested on: U251 CNS
# Assay text: NCI-60 one-dose screen, 48 h (100 = growth as untreated, 0 = no growth, -100 = all killed)
# Test conditions: 10 µM unless noted
This is part of a sample that, as a whole, favours compounds with a hit. Of some 83,000 tested, about 20% had one in any assay.
Entries whose growth is below 80% take true; entries at or above 80% take false.

compound=c1ccc(Nc2nnc(-c3cc(-c4cccnc4)n(-c4ccccc4)n3)s2)cc1 label=true
compound=CCOC(=O)c1ccccc1OC(=O)NNc1ccccc1 label=false
compound=COc1ccc(-c2nc3sccn3c2-c2ccnc(S(C)(=O)=O)n2)cc1 label=false
compound=Nc1ccccc1-c1ccc([N+](=O)[O-])cc1 label=true
compound=COc1ccc(OC)c2c1[nH]c(=O)c1c3ccccc3cn21 label=true
compound="C=C1CC[C@@H]2[C@](C)(COC(C)=O)[C@H](OC(C)=O)CC[C@@]2(C)[C@@H]1CC(Nc1ccc(S(=O)(=O)Nc2cc(C)on2)cc1)C1=CCOC1=O (some centres not stated)" label=true
compound="O=C(C(=O)N1CCOCC1)c1ccc(OC2OC(CO)C(O)C(O)C2O)cc1 (configuration not stated)" label=false
compound=COC(=O)CCC1=C(CC(=O)OC)C(C)=N/C1=C\c1[nH]c(-c2ccc[nH]2)cc1OC label=true
compound="CCOC(=O)C1C(=O)OC2CCCCC21 (configuration not stated)" label=false
compound=O=C(CCc1nnc(Cn2ccnc2)o1)c1nc2ccccc2[nH]1 label=false
compound=OCc1nnn(-c2ccccc2)c1CO label=false
compound="COc1cc(C2=NN(C(C)=O)C(c3ccc(OC(C)=O)cc3OC(C)=O)O2)c(OC(C)=O)c2ccccc12 (configuration not stated)" label=true
compound=COc1cc(OC)c2cc(C(=O)O)c(=O)oc2c1 label=false
compound=N#CCNc1ccccc1N label=false
compound=c1ccc2cc(C[n+]3ccn(CCCCCCCn4cc[n+](Cc5ccc6ccccc6c5)c4)c3)ccc2c1 label=true
compound=O=C(CCc1nnc(Cn2cncn2)o1)c1nc2ccccc2[nH]1 label=false
compound=CC/C(=C\c1ccc(N(C)C)cc1)c1nc2ccccc2c(=O)[nH]1 label=false
compound=CCN(CC)CCOc1ccccc1-n1c(C)ccc1-c1ccccc1 label=false
compound=O=C(/C=C/c1cc2ccccc2[nH]c1=O)c1ccc(Cl)cc1 label=true
compound=CCOC(=O)c1c(C)nc(C)c(C(=O)OCC)c1-c1cccnc1 label=false
compound=c1ccc(-c2nn[nH]n2)c(-c2ccc(CN3CCN(c4nsc5ccccc45)CC3)cc2)c1 label=false

###

# Tested on: MOLT-4 leukemia
# Assay text: NCI-60 one-dose screen, 48 h (100 = growth as untreated, 0 = no growth, -100 = all killed)
# Test conditions: 10 µM unless noted
Compounds without any hit were thinned out: in the full panel of roughly 83,000, 20% have a hit.
Listing of recorded growth by entry.
Property label: growth (%)

compound=COc1cccc(/C=C2\COc3ccc(O)c(O)c3C2=O)c1OC result_number=-12.8
compound=Cc1ccsc1/C=C/C1=NCCCN1C result_number=95
compound="O=C(/C=C/c1ccccc1)CC(c1ccccc1)N1CCOCC1 (configuration not stated)" result_number=78.4
compound=COc1ccc2[nH]cc(/C=C3/C(=O)Nc4ccc(F)cc43)c2c1 result_number=61.6
compound=O=C1/C(=C/c2ccc([N+](=O)[O-])s2)Oc2ccc(Br)cc21 result_number=-16.8
compound="CC1CC(C)/C(=N/NC(N)=O)C(C(O)CC2CCC(=O)NC2=O)C1 (configuration not stated)" result_number=23
compound=COc1ccc(OC)c(NC(=O)c2cc3oc4ccccc4c3cc2O)c1 result_number=117
compound="CCCCC(C#N)C(N)=O (configuration not stated)" result_number=90.2
compound=COc1ccc(-n2nc3c(c2-c2ccc(OC)c(OC)c2)-c2oncc2CC3)cc1 result_number=72.6
compound=CCCCCCCCCCCCCCCCCc1nccn1CCO result_number=65.6
compound=C=CCCCCCCCCC(=O)[O][Sn]([CH2]CCC)([CH2]CCC)[CH2]CCC result_number=4.17
compound=CC[C@H](C)C(=O)O[C@H]1C[C@@H](C)C=C2C=C[C@H](C)[C@H](CC[C@@H]3C[C@@H](O)CC(=O)O3)[C@H]21 result_number=90.8
compound=O=C(Nc1ccccc1Cl)c1cnc2ccc(C3CCNCC3)cn12 result_number=62.5
compound=O=C(/C=C/c1cc2ccccc2[nH]c1=O)c1ccc(Cl)cc1 result_number=2.61
compound=CCc1[nH]nc(-c2ccc(OC)cc2)c1-c1ccccc1OCCN(CC)CC result_number=85.8
compound=C/C(=N/N=C(N)N)c1ccc(Cl)cc1 result_number=145
compound=COc1ccccc1[C@H]1c2[nH]c3ccccc3c2C[C@H]2C(=O)N(CCCCCCC(=O)NO)CC(=O)N12 result_number=11
compound=COC(=O)[C@]12CC[C@@H](C)[C@H](C)[C@@H]1C1=CC[C@@H]3[C@@]4(C)C=C(O)C(=O)[C@@]5(C)COC(=C54)C[C@@]3(C)[C@]1(C)CC2 result_number=-72.1
compound=Cc1cc2c(cc1C)Nc1sc(NC(=O)CN3CCN(C)CC3)nc1C(=O)N2 result_number=87.4
compound=COc1ccc(C(=O)COc2cccc(/C=C3\Oc4ccc5ccccc5c4C3=O)c2)cc1 result_number=18.9
compound="Cc1cc(C)c2c(c1)N1OC(C2)C[C@H]1/C=C/c1ccccc1 (some centres not stated)" result_number=77.7
compound=CCCCCCCC/C=C\CCCCCCCCOc1ccccc1CC(=O)NCC[N+]1(C)CCCC1 result_number=65
compound="C[N+]1(CCc2ccccc2)CCC(CCC2CC[N+](C)(CCc3ccccc3)CC2)CC1 (configuration not stated)" result_number=123
compound=Cn1[nH]cc(/C=N/C(N)=O)c1=O result_number=105
compound="Cc1ccc(C(O)C2=CC(=O)c3ccccc3C2=O)cc1 (configuration not stated)" result_number=94.7
compound=O=C(O)C(=O)O result_number=138
compound=C/C(=C\CCc1ccsc1)CC/C=C(\C)CCCN1CCN(CCO)CC1 result_number=2.14
compound=Cc1scc2c1N(C(=O)CN1CCN(C)CC1)c1ccccc1NC2=O result_number=96.5
compound=O=C1/C(=C/c2ccc([N+](=O)[O-])o2)Oc2ccc(Br)cc21 result_number=1.28
compound=Cc1cc(C(C)(C)C)cc(C)c1CC1=NCCN1 result_number=93.5
compound=CCn1c2ccccc2c2ccc(C(C)=O)cc21 result_number=96.8
compound=Cc1ccccc1-c1cc(Cc2ccccc2O)c(=O)[nH]n1 result_number=86.7
compound=CN1C(=O)C(=Cc2cn(Cc3ccccc3)c3ccc(Br)cc23)C(=O)N(C)C1=O result_number=87.6
compound=c1cncc(CNc2ccccc2-c2nnc(Nc3ccc4c(c3)OCO4)o2)c1 result_number=18.6
compound=CCC1=C(c2ccc(OC)cc2)C(C)(C)Oc2c1ccc(O)c2CN1CCCC1 result_number=14.3
compound=Clc1ccc([C@@H]2C[C@@H]3Cc4cc(Br)c5ccccc5c4N2O3)c(Cl)c1 result_number=78
compound=Fc1ccc(-c2nnc(/C=C/c3cn(-c4ccccc4)nc3-c3ccccc3)o2)cc1 result_number=99.3
compound=CCC(C)(C)C(=O)O[C@H]1C[C@@H](C)C=C2C=C[C@H](C)[C@H](CC[C@@H]3C[C@@H](O)CC(=O)O3)[C@H]21 result_number=72.8
compound=CCOc1cc(C(C)(C)C)ccc1C1=N[C@H](c2ccc(Cl)cc2)[C@H](c2ccc(Cl)cc2)N1C(=O)N1CCN(CC#Cc2cccc3c2CN([C@@H]2CCC(=O)NC2=O)C3=O)CC1 result_number=-13.3
compound=NC(=Nc1ccccc1)SCCCCSC(N)=Nc1ccccc1 result_number=70.3
compound=Cc1c(C(N)=O)sc2ncn(Cc3ccccc3)c(=O)c12 result_number=114
compound=COc1cc(Oc2cc(-c3cccnc3)ccc2NC(=O)Nc2ccc(F)cc2F)cc(OC)c1OC result_number=84.9

###

# Tested on: CCRF-CEM leukemia
# Assay text: NCI-60 one-dose screen, 48 h (100 = growth as untreated, 0 = no growth, -100 = all killed)
# Test conditions: 10 µM unless noted
About 83,000 compounds went through this panel and 20% of them were active in at least one assay; those are over-represented in the sample as a whole.
Answer Not satisfied if growth is under 90%, and Satisfied if it is 90% or more.

compound=c1ccc(-c2nnc(Nc3nnc(-c4ccccc4)s3)s2)cc1 label=Satisfied
compound=O=C(CCc1nnc2sc(-c3ccc(Cl)cc3Cl)nn12)c1nc2ccccc2[nH]1 label="Not satisfied"
compound=COC(=O)[C@]12CC[C@@H](C)[C@H](C)[C@@H]1C1=CC[C@@H]3[C@@]4(C)C=C(O)C(=O)[C@@]5(C)COC(=C54)C[C@@]3(C)[C@]1(C)CC2 label="Not satisfied"
compound=COc1ccc(-n2nnc(C(=O)O)c2-c2cc(OC)c(OC)c(OC)c2)cc1 label=Satisfied
compound=c1cncc(CNc2ccccc2-c2nnc(Nc3ccc4c(c3)OCO4)o2)c1 label="Not satisfied"
compound=C=C(C[C@](O)(C(=O)/C=C/c1ccc(Cl)cc1)C(=O)OC)c1ccccc1 label="Not satisfied"
compound=COc1ccc(Cn2cc3c(c2-c2ccccc2)CCc2cncnc2-3)cc1 label="Not satisfied"
compound=Cc1cc(C(C)(C)c2cc(C)c(O)c(CN(C)C)c2)cc(CN(C)C)c1O label=Satisfied
compound=Cn1cc(-c2csc(-c3cn(C)c4ncccc34)n2)c2cccnc21 label="Not satisfied"
compound="O=C1CCCN1C1CCN(Cc2cc3ccccc3[nH]c2=O)c2ccccc21 (stereo unspecified)" label="Not satisfied"
compound="CN1CCCC1c1cccnc1 (stereo unspecified)" label="Not satisfied"
